Biological target: Human (6-His)Sortilin (Homo sapiens)
Construct: purchased RnD Systems
Sequence (Q99523 78-755 limits assumed): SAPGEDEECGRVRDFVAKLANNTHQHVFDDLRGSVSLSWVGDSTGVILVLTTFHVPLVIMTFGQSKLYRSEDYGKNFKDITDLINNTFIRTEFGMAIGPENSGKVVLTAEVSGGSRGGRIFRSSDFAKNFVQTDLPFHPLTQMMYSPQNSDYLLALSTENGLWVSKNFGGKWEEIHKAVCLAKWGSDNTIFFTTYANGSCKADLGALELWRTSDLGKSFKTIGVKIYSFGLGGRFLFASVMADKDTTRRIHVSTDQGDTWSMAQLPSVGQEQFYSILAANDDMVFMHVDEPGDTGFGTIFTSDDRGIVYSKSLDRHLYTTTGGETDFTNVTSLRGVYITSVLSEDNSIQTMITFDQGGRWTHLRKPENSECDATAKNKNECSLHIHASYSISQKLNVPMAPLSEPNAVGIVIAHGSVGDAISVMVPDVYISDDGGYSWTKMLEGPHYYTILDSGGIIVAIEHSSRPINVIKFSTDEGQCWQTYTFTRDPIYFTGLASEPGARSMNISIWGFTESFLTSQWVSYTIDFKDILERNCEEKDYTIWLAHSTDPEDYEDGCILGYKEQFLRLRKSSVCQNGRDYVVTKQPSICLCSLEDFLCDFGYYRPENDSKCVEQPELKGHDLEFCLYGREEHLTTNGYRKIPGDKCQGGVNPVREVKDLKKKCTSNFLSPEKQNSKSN
Assay: Human Sortilin GCI (Grating-Coupled Interferometry) binding assay
Conditions: Creoptix WAVE-RAPID, single concentration (usually 1 µM, 10 µM or 100 µM), immobilised Human (6-His)Sortilin, 1:1 kinetic binding model
hey, just use yes if measured Kd is less than 9 µM, otherwise no

Below are worked cases with known answers.
-- ask Is 9 µM strictly greater than the compound's reported Kd? compound: CC(C)(C)CCC(Nc1ncccn1)c1nn[nH]n1 (racemic)
-- reply yes

-- ask Is 9 µM strictly greater than the compound's reported Kd? compound: "CC(C)(C)CC[C@H](Nc1cncc(Oc2ccccc2)n1)C(=O)O"
-- reply yes

-- ask Is 9 µM strictly greater than the compound's reported Kd? compound: CC(C)CC(Nc1ccncn1)c1nn[nH]n1 (racemic)
-- reply no

Switching to the query record.
-- ask Is 9 µM strictly greater than the compound's reported Kd? compound: COc1ccc2ncnc(NC(CCC(C)C)c3nn[nH]n3)c2c1 (racemic)
-- reply no
